system: Ca^2+- and ATP-sensitive nonselective cation channels (CA-NSCs); experiment: Excised inside-out patch recording of CA-NSC channel gating; assay type: biochemical, rat; conditions: read-out: K1/2 for inhibition of opening rate; 1 mM Ca2+ i, Vm −40 mV, no DV, Hill fit; deactivated channels
pIC50: −log10 of the molar value.
QUANTITY KIND: pIC50

INSERT INTO results (query_smiles, test_value) VALUES
  ('Nc1ncnc2c1ncn2[C@@H]1O[C@H](COP(=O)(O)OP(=O)(O)O)[C@@H](O)[C@H]1O', 5.37),
  ('Nc1ncnc2c1ncn2[C@@H]1O[C@H](COP(=O)(O)OP(=O)(O)OP(=O)(O)O)[C@@H](O)[C@H]1O', 4.96),
  ('Nc1ncnc2c1ncn2[C@@H]1O[C@H](COP(=O)(O)O)[C@@H](O)[C@H]1O', 5.96);

====

test system: Ca^2+- and ATP-sensitive nonselective cation channels (CA-NSCs); assay: Excised inside-out patch recording of CA-NSC channel gating; format: biochemical, rat; conditions: read-out: K1/2 for inhibition of Po; freshly excised (~10 s) channels in 100 μM Ca2+, −40 mV; tentative analysis
pIC50: −log10 of the molar value.
QUANTITY KIND: pIC50

INSERT INTO assay_data (compound, test_value) VALUES
  ('Nc1ncnc2c1ncn2[C@@H]1O[C@H](COP(=O)(O)OP(=O)(O)OP(=O)(O)O)[C@@H](O)[C@H]1O [ATP]', 4.47);

====

tested on: Ca^2+- and ATP-sensitive nonselective cation channels (CA-NSCs); experiment: Excised inside-out patch recording of CA-NSC channel gating; assay type: biochemical, rat; conditions: read-out: K1/2 for inhibition of opening rate; freshly excised (~10 s) channels in 100 μM Ca2+, −40 mV; tentative analysis
pIC50: −log10 of the molar value.
QUANTITY KIND: pIC50

INSERT INTO results (query_smiles, test_value) VALUES
  ('Nc1ncnc2c1ncn2[C@@H]1O[C@H](COP(=O)(O)OP(=O)(O)OP(=O)(O)O)[C@@H](O)[C@H]1O', 4.82);
